Kindly state Percent cleavage for each of the entries shown.
- system under test: AxCT mask27 EGFR EH104 L071 version 1
Give just the numeric value; % need not be written.

q: Request the reported Percent cleavage associated with MMP-12 (protein) GPVWRKHYITYRINNYTPDMNREDVDYAIRKAFQVWSNVTPLKFSKINTGMADILVVFARGAHGDFHAFDGKGGILAHAFGPGSGIGGDAHFDEDEFWTTHSGGTNLFLTAVHEIGHSLGLGHSSDPKAVMFPTYKYVDINTFRLSADDIRGIQSLYGDPKENQRLPNPDNSEPALCDPNLSFDAVTTVGNKIFFFKDRFFWLKVSERPKTSVNLISSLWPTLPSGIEAAYEIEARNQVFLFKDDKYWLISNLRPEPNYPKSIHSFGFPNFVKKIDAAVFNPRFYRTYFFVDNQYWRYDERRQMMDPGYPKLITKNFQGIGPKIDAVFYSKNKYYYFFQGSNQFEYDFLLQRITKTLKSNSWFGC
a: 51

q: Request the reported Percent cleavage associated with MMP-7 (protein) YSLFPNSPKWTSKVVTYRIVSYTRDLPHITVDRLVSKALNMWGKEIPLHFRKVVWGTADIMIGFARGAHGDSYPFDGPGNTLAHAFAPGTGLGGDAHFDEDERWTDGSSLGINFLYAATHELGHSLGMGHSSDPNAVMYPTYGNGDPQNFKLSQDDIKGIQKLYGKRSNSRKK
a: 30

q: Request the reported Percent cleavage associated with Cathepsin G (protein) IIGGRESRPHSRPYMAYLQIQSPAGQSRCGGFLVREDFVLTAAHCWGSNINVTLGAHNIQRRENTQQHITARRAIRHPQYNQRTIQNDIMLLQLSRRVRRNRNVNPVALPRAQEGLRPGTLCTVAGWGRVSMRRGTDTLREVQLRVQRDRQCLRIFGSYDPRRQICVGDRRERKAAFKGDSGGPLLCNNVAHGIVSYGKSSGVPPEVFTRVSSFLPWIRTTMRS
a: 0

q: Request the reported Percent cleavage associated with Neutrophil Elastase (protein) IVGGRRARPHAWPFMVSLQLRGGHFCGATLIAPNFVMSAAHCVANVNVRAVRVVLGAHNLSRREPTRQVFAVQRIFENGYDPVNLLNDIVILQLNGSATINANVQVAQLPAQGRRLGNGVQCLAMGWGLLGRNRGIASVLQELNVTVVTSLCRRSNVCTLVRGRQAGVCFGDSGSPLVCNGLIHGIASFVRGGCASGLYPDAFAPVAQFVNWIDSIIQ
a: 26

Hey, just so you know, these numbers are from patent US20240336909.
